- study.system: HERG (Homo sapiens)
- Sequence (Q12809 whole entry): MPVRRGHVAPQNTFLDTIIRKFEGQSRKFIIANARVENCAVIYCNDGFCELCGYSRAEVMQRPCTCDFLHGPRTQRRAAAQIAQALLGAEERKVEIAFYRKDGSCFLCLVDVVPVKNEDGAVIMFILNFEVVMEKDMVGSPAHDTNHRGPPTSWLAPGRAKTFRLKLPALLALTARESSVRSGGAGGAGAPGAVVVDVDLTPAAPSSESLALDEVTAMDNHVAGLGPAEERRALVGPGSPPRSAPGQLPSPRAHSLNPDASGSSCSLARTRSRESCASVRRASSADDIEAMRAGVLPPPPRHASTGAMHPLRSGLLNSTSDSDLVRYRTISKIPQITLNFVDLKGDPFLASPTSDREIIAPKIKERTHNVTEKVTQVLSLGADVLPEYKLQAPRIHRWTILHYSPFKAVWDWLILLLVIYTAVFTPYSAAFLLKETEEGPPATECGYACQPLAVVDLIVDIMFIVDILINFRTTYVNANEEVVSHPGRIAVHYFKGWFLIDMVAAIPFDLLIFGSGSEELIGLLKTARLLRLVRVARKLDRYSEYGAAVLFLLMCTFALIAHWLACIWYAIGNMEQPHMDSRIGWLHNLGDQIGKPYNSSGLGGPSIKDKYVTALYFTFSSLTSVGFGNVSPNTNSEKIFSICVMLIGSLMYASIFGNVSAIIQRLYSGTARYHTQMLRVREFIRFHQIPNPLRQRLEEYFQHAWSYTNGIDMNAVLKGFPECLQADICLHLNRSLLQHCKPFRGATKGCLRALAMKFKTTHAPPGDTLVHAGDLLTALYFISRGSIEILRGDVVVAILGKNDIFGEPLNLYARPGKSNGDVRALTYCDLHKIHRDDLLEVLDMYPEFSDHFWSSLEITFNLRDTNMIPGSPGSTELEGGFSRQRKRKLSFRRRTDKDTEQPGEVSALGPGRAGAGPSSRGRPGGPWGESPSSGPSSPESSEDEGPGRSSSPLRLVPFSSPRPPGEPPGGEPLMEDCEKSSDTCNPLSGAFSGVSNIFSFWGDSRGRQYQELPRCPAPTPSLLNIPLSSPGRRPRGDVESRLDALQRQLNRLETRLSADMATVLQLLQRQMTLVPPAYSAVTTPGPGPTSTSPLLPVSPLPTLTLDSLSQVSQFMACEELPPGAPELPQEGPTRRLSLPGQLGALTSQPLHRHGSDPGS
measurement.label: IC50

In: Dear colleague, I am looking for the recorded IC50 of the following molecule: N#Cc1ccc(N2CC[C@@H](Nc3c(C(N)=O)cnc4[nH]ccc34)[C@@H](F)C2)nc1 (racemic)
Out: ≥ 100 µM

====

- study.system: human JAK3 kinase domain (Homo sapiens, UniProt P52333)
- Construct: attached to the N-terminal of the 796-1124 (C-terminal) fragment of the human JAK3 protein; His-tag (N); purchased Carna Biosciences, Inc. (Kobe, Japan); host or cells: baculovirus expression system
- Sequence (P52333 796-1124): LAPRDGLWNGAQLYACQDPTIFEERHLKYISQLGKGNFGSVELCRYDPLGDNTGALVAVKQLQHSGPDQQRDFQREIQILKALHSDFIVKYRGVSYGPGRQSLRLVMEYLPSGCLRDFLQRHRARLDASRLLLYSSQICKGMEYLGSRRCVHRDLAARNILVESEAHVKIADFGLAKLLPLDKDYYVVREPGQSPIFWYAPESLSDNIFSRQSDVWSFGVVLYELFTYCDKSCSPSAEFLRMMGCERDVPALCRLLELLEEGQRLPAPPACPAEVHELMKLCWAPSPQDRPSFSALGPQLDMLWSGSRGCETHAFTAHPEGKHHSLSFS
- experiment.notes: JAK3 inhibition test
- Assay type: biochemical
- measurement.setup: 20 μM ATP in substrate solution, Biotin-Lyn-Substrate-2, one hour at ambient temperature; compounds of the Examples
- Protocol: The JAK3 inhibition test was performed as described below Purified human JAK3 kinase domain was purchased from Carna Biosciences, Inc. (Kobe, Japan). This was afforded as described below. […] After incubation at ambient temperature for one hour, the plate was washed with a cleaning buffer (50 mM Tris-HCl pH 7.5, 150 mM NaCl, 0.02% Tween 20), and a blocking buffer (a cleaning buffer containing 0.1% bovine serum albumin) was added to the plate. […] Enzyme activity was measured as absorbance at 450 nm.
measurement.label: IC50 (nM)
Answers are plain numbers, in nM.

C[C@@H]1CCN(C(=O)N2CCC=N2)C[C@@H]1n1c(=O)[nH]c2cnc3[nH]ccc3c21 (racemic) | 10
Nc1nn(C2CCCCCC2)c2c1cnc1[nH]ccc12 | 10
NC(=O)c1cnc2[nH]ccc2c1N[C@@H]1CCN(c2ccc(C(F)(F)F)nn2)C[C@@H]1F (racemic) | 3.2
N#Cc1ccc(N2CC[C@@H](Nc3c(C(N)=O)cnc4[nH]ccc34)[C@@H](F)C2)nc1 [Example 94] | 0.3
C[C@H]1CN(c2ccc(C#N)cn2)CC[C@H]1Nc1c(C(N)=O)cnc2[nH]cnc12 (racemic) | 2.2

Hi! Can you tell me IC50 for each of these molecules?
1. C[C@@H]1CCN(C(=O)N2C[C@@H](F)C[C@H]2C#N)C[C@@H]1n1c(=O)[nH]c2cnc3[nH]ccc3c21 (mixture of isomers)
2. C[C@@H]1CN(c2ccc(C#N)nn2)CC[C@@H]1Nc1c(C(N)=O)cnc2[nH]ccc12 (racemic)
3. N#Cc1ccc(N2CC[C@@H](Nc3c(C(N)=O)cnc4[nH]ccc34)[C@H](F)C2)nc1 (racemic)
4. C[C@@H]1CCN(C(=O)CC#N)C[C@@H]1n1nc(N)c2cnc3[nH]ccc3c21 (racemic)
5. C[C@@H]1CN(c2ccc(C#N)cn2)CC[C@@H]1Nc1c(C(N)=O)cnc2[nH]ccc12 (racemic)
6. N#Cc1ccc(N2CCC(Nc3c(C(N)=O)cnc4[nH]ccc34)CC2)cc1

Out:
1. 0.86
2. 1
3. 2.7
4. 0.52
5. 0.78
6. 3.4

Hi! Can you tell me IC50 for each of these molecules?
1. CC[C@@H]1CCCC[C@@H]1n1nc(N)c2cnc3[nH]ccc3c21
2. CNC(=O)C(=O)Nc1nn([C@H]2CN(c3ccc([N+](=O)[O-])cn3)CC[C@H]2C)c2c1cnc1[nH]ccc12 (racemic)
3. C[C@@H]1CCN(c2ccc(C#N)cn2)C[C@@H]1n1[nH]c(=O)c2cnc3[nH]ccc3c21 (racemic)

Out:
3.8
4.8
1.6

Hi! Can you tell me IC50 for each of these molecules?
1. N#Cc1ccc(N2CC[C@@H](Nc3c(C(N)=O)cnc4[nH]ccc34)[C@@H](F)C2)nc1 (racemic) [Example 41]
2. C[C@@H]1CCN(C(=O)CC#N)C[C@@H]1n1[nH]c(=O)c2cnc3[nH]ccc3c21 (racemic)
3. N#Cc1ccc(N2CC[C@@H](Nc3c(C(N)=O)cnc4[nH]ccc34)[C@@H](F)C2)nn1 (racemic)

Out:
[1.1, 1.7, 0.76]
